test system: Standard Strain H37Rv of mycobacterium tuberculosis; assay: MIC against standard strain H37Rv by Microplate Alamar Blue Assay (MABA); assay type: cell-based; conditions: M. tuberculosis H37Rv, 7H9 medium, 37° C.
quantity name: MIC (µg/mL)

• COc1cc2ccc(Br)cc2cc1C(c1ccccc1)C(O)(CCN(C)C)c1ccccc1 (centres unmarked) [Compound 20] = 2.000
• COc1cc2ccc(Br)cc2cc1C(c1ccccc1)C(O)(CCN(C)C)c1cccc(Br)c1 (centres unmarked) [Compound 12] = 1.000
• COc1c(C(c2ccccc2)C(O)(CCN(C)C)c2cccc3ccccc23)cc2cc(Br)ccc2c1Br (centres unmarked) [Compound 31] = 0.124
• COc1cc2ccc(Br)cc2cc1C(c1ccc(Cl)cc1)C(O)(CCN(C)C)c1ccccc1Br (centres unmarked) [Compound 21] = 2.000
• COc1cc2ccc(Br)cc2cc1C(c1ccccc1)C(O)(CCN(C)C)c1ccccc1Br (centres unmarked) [Compound 24] = 0.224
• COc1cc2ccc(Br)cc2cc1C(c1ccc(Cl)cc1)C(O)(CCN(C)C)c1cccc2ccccc12 (single isomer, unassigned) [Compound 4] = 0.244
• COc1cc2ccc(Br)cc2cc1C(c1ccc(Cl)cc1)C(O)(CCN(C)C)c1ccccc1 (centres unmarked) [Compound 18] = 0.109

----------
system: Standard Strain H37Rv of mycobacterium tuberculosis; experiment: MIC against standard strain H37Rv by Microplate Alamar Blue Assay (MABA); format: cell-based; conditions: M. tuberculosis H37Rv, 7H9 medium, 37° C.
Please note: MIC exactly at 3 µg/mL is Not met. Only values below 3 µg/mL get Met.

* COc1cc2ccc(Br)cc2cc1C(c1ccc(C)cc1)C(O)(CCN(C)C)c1cccc2ccccc12 (stereo not drawn) [Compound 29] | Met
* COc1cc2ccc(Br)cc2cc1C(c1cccc(Cl)c1)C(O)(CCN(C)C)c1cccc2ccccc12 (stereo not drawn) [Compound 36] | Not met
* COc1cc2ccc(Br)cc2cc1C(c1ccccc1)C(O)(CCN(C)C)c1ccccc1 (stereo not drawn) [Compound 19] | Met
* COc1cc2ccc(Br)cc2cc1C(c1ccc(Cl)cc1)C(O)(CCN(C)C)c1ccccc1Br (stereo not drawn) [Compound 22] | Met
* COc1cc2ccc(Br)cc2cc1C(c1ccc(Cl)cc1)C(O)(CCN(C)C)c1ccc(Br)cc1 (stereo not drawn) [Compound 8] | Met
* COc1cc2ccc(Br)cc2cc1C(c1ccccc1)C(O)(CCN(C)C)c1cccc(Br)c1 (stereo not drawn) [Compound 11] | Met
* COc1cc2ccc(Br)cc2cc1C(c1ccc(Cl)cc1)C(O)(CCN(C)C)c1cccc2ccccc12 (single isomer, unassigned) [Compound 3] | Met
* COc1cc2ccc(Br)cc2cc1C(c1ccccc1)C(O)(CCN(C)C)c1ccc(Br)cc1 (stereo not drawn) [Compound 9] | Met
* COc1cc2ccc(Br)cc2cc1C(c1ccc(Cl)cc1)C(O)(CCN(C)C)c1cccc(Br)c1 (stereo not drawn) [Compound 15] | Met
* COc1cc2ccc(Br)cc2cc1C(c1cccc(Cl)c1)C(O)(CCN(C)C)c1cccc2ccccc12 (stereo not drawn) [Compound 35] | Met
* COc1cc2ccc(Br)cc2cc1C(c1ccc(Cl)cc1)C(O)(CCN(C)C)c1ccccc1 (stereo not drawn) [Compound 17] | Met
* COc1cc2ccc(Br)cc2cc1C(c1ccccc1)C(O)(CCN(C)C)c1cccc2ccccc12 (stereo not drawn) [Compound 25] | Met
* COc1cc2ccccc2cc1C(c1ccccc1)C(O)(CCN(C)C)c1cccc2ccccc12 (stereo not drawn) [Compound 2] | Not met
* CN(C)CCC(O)(c1cccc2ccccc12)C(c1ccccc1)c1cc2cc(Br)ccc2c(Br)c1O (stereo not drawn) [Compound 34] | Not met

----------
system: Standard Strain H37Rv of mycobacterium tuberculosis; assay: MIC against standard strain H37Rv by Microplate Alamar Blue Assay (MABA); assay type: cell-based; conditions: M. tuberculosis H37Rv, 7H9 medium, 37° C.
Please note: MIC exactly at 1 µg/mL is Not fulfilled. Only values below 1 µg/mL get Fulfilled.

• COc1cc2ccc(Br)cc2cc1C(c1ccccc1)C(O)(CCN(C)C)c1cccc2ccccc12 (centres unmarked) [Compound 26] = Not fulfilled
• COc1cc2ccccc2cc1C(c1ccc(Cl)cc1)C(O)(CCN(C)C)c1ccc(F)cc1F (centres unmarked) = Fulfilled
• COc1cc2ccccc2cc1C(c1ccc(Cl)cc1)C(O)(CCN(C)C)c1cccc2ccccc12 (single isomer, unassigned) [Compound 6] = Not fulfilled
• COc1cc2ccc(Br)cc2cc1C(c1ccc(Cl)cc1)C(O)(CCN(C)C)c1cccc(Br)c1 (centres unmarked) [Compound 16] = Fulfilled
• COc1cc2ccc(Br)cc2cc1C(c1ccccc1)C(O)(CCN(C)C)c1ccc(Br)cc1 (centres unmarked) [Compound 10] = Not fulfilled

----------
system: Standard Strain H37Rv of mycobacterium tuberculosis; experiment: MIC against standard strain H37Rv by Microplate Alamar Blue Assay (MABA); assay type: cell-based; settings: M. tuberculosis H37Rv, 7H9 medium, 37° C.
The following molecules are shown together with reported MIC values.
quantity name: MIC (µg/mL)

• COc1cc2ccc(Br)cc2cc1C(c1ccc(C)cc1)C(O)(CCN(C)C)c1cccc2ccccc12 (stereo not drawn) [Compound 30] = 1.000
• COc1c(C(c2ccccc2)C(O)(CCN(C)C)c2cccc3ccccc23)cc2cc(Br)ccc2c1Br (stereo not drawn) [Compound 32] = 1.000
• CN(C)CCC(O)(c1cccc2ccccc12)C(c1ccccc1)c1cc2cc(Br)ccc2c(Br)c1O (stereo not drawn) [Compound 33] = 1.000
